- System: Staphylococcus aureus
- EXPERIMENT NOTES: Antibacterial activity against Staphylococcus aureus MTCC 96 by conventional broth microdilution method
- Assay type: functional
Could you please mark Met for values of MIC below 100 µg/mL and Not met for values at or above it?

Query block: Does N#CCCSC1=NC(c2ccc(F)cc2)=CC(c2cc3cc(Cl)ccc3nc2Cl)N1 (configuration not stated) have MIC strictly under 100 µg/mL?
Result block: Not met

Query block: Does COc1ccc(C2=CC(c3cc4cc(Cl)ccc4nc3Cl)NC(SCCC#N)=N2)cc1 (configuration not stated) have MIC strictly under 100 µg/mL?
Result block: Met

Query block: Does N#CCCSC1=NC(c2ccc(Cl)cc2)=CC(c2cc3cc(Cl)ccc3nc2Cl)N1 (configuration not stated) have MIC strictly under 100 µg/mL?
Result block: Not met

Query block: Does N#CCCSC1=NC(c2cccc([N+](=O)[O-])c2)=CC(c2cc3cc(Cl)ccc3nc2Cl)N1 (configuration not stated) have MIC strictly under 100 µg/mL?
Result block: Not met

---
Query block: Does N#CCCSC1=NC(c2cccc(F)c2)=CC(c2cc3cc(Cl)ccc3nc2Cl)N1 (configuration not stated) have MIC strictly under 100 µg/mL?
Result block: Not met

Query block: Does COc1cccc(C2=CC(c3cc4cc(Cl)ccc4nc3Cl)NC(SCCC#N)=N2)c1 (configuration not stated) have MIC strictly under 100 µg/mL?
Result block: Met

----------
- Test system: Staphylococcus aureus
- EXPERIMENT NOTES: Antibacterial activity against Staphylococcus aureus MTCC 96 by conventional broth microdilution method
- Type: functional
READOUT LABEL: log10 of MIC (log10 of the value in µg/mL)
The figures below represent log10 of MIC, where MIC is stated in µg/mL.

Past entries and their recorded results:
Query block: Can you share its log10 of MIC? I mean this compound: N#CCCSC1=NC(c2ccc([N+](=O)[O-])cc2)=CC(c2cc3cc(Cl)ccc3nc2Cl)N1 (centres undefined)
Result block: 3.00

Query block: Can you share its log10 of MIC? I mean this compound: N#CCCSC1=NC(c2cccc(Cl)c2)=CC(c2cc3cc(Cl)ccc3nc2Cl)N1 (centres undefined)
Result block: 2.40

Query block: Can you share its log10 of MIC? I mean this compound: N#CCCSC1=NC(c2cccc(Br)c2)=CC(c2cc3cc(Cl)ccc3nc2Cl)N1 (centres undefined)
Result block: 2.70

Query block: Can you share its log10 of MIC? I mean this compound: N#CCCSC1=NC(c2ccccc2)=CC(c2cc3cc(Cl)ccc3nc2Cl)N1 (centres undefined)
Result block: 2.00

Query block: Can you share its log10 of MIC? I mean this compound: Cc1ccc(C2=CC(c3cc4cc(Cl)ccc4nc3Cl)NC(SCCC#N)=N2)cc1 (centres undefined)
Result block: 1.40

---
Query block: Can you share its log10 of MIC? I mean this compound: O=C(O)c1cn(C2CC2)c2cc(N3CCNCC3)c(F)cc2c1=O [CIPROFLOXACIN]
Result block: 1.70

Query block: Can you share its log10 of MIC? I mean this compound: N#CCCSC1=NC(c2ccc(O)cc2)=CC(c2cc3cc(Cl)ccc3nc2Cl)N1 (centres undefined)
Result block: 1.40

Query block: Can you share its log10 of MIC? I mean this compound: N#CCCSC1=NC(c2ccc(Br)cc2)=CC(c2cc3cc(Cl)ccc3nc2Cl)N1 (centres undefined)
Result block: 2.40

Query block: Can you share its log10 of MIC? I mean this compound: N#CCCSC1=NC(c2cccc(O)c2)=CC(c2cc3cc(Cl)ccc3nc2Cl)N1 (centres undefined)
Result block: 2.00

----------
- Tested on: Mycobacterium tuberculosis
- EXPERIMENT NOTES: Antimycobacterial activity against Mycobacterium tuberculosis H37Rv by Lowenstein-Jensen slope method
- Assay type: functional
READOUT LABEL: inhibition (INH)

Query block: Entry COc1ccc(C2=CC(c3cc4cc(Cl)ccc4nc3Cl)NC(SCCC#N)=N2)cc1 (stereo not given) , system Mycobacterium tuberculosis: what inhibition (INH) was measured?
Result block: 99%

Query block: Entry N#CCCSC1=NC(c2cccc([N+](=O)[O-])c2)=CC(c2cc3cc(Cl)ccc3nc2Cl)N1 (stereo not given) , system Mycobacterium tuberculosis: what inhibition (INH) was measured?
Result block: 38%

Query block: Entry N#CCCSC1=NC(c2ccc(F)cc2)=CC(c2cc3cc(Cl)ccc3nc2Cl)N1 (stereo not given) , system Mycobacterium tuberculosis: what inhibition (INH) was measured?
Result block: 69%

Query block: Entry N#CCCSC1=NC(c2ccc([N+](=O)[O-])cc2)=CC(c2cc3cc(Cl)ccc3nc2Cl)N1 (stereo not given) , system Mycobacterium tuberculosis: what inhibition (INH) was measured?
Result block: 56%

Query block: Entry N#CCCSC1=NC(c2cccc(Br)c2)=CC(c2cc3cc(Cl)ccc3nc2Cl)N1 (stereo not given) , system Mycobacterium tuberculosis: what inhibition (INH) was measured?
Result block: 66%

---
Query block: Entry N#CCCSC1=NC(c2ccc(Br)cc2)=CC(c2cc3cc(Cl)ccc3nc2Cl)N1 (stereo not given) , system Mycobacterium tuberculosis: what inhibition (INH) was measured?
Result block: 58%

Query block: Entry N#CCCSC1=NC(c2ccc(Cl)cc2)=CC(c2cc3cc(Cl)ccc3nc2Cl)N1 (stereo not given) , system Mycobacterium tuberculosis: what inhibition (INH) was measured?
Result block: 42%

Query block: Entry COc1cccc(C2=CC(c3cc4cc(Cl)ccc4nc3Cl)NC(SCCC#N)=N2)c1 (stereo not given) , system Mycobacterium tuberculosis: what inhibition (INH) was measured?
Result block: 97%

Query block: Entry N#CCCSC1=NC(c2cccc(F)c2)=CC(c2cc3cc(Cl)ccc3nc2Cl)N1 (stereo not given) , system Mycobacterium tuberculosis: what inhibition (INH) was measured?
Result block: 41%

Query block: Entry N#CCCSC1=NC(c2cccc(O)c2)=CC(c2cc3cc(Cl)ccc3nc2Cl)N1 (stereo not given) , system Mycobacterium tuberculosis: what inhibition (INH) was measured?
Result block: 98%

Query block: Entry Cc1cccc(C2=CC(c3cc4cc(Cl)ccc4nc3Cl)NC(SCCC#N)=N2)c1 (stereo not given) , system Mycobacterium tuberculosis: what inhibition (INH) was measured?
Result block: 81%

Query block: Entry Cc1ccc(C2=CC(c3cc4cc(Cl)ccc4nc3Cl)NC(SCCC#N)=N2)cc1 (stereo not given) , system Mycobacterium tuberculosis: what inhibition (INH) was measured?
Result block: 98%

Query block: Entry N#CCCSC1=NC(c2ccccc2)=CC(c2cc3cc(Cl)ccc3nc2Cl)N1 (stereo not given) , system Mycobacterium tuberculosis: what inhibition (INH) was measured?
Result block: 62%

Query block: Entry N#CCCSC1=NC(c2ccc(O)cc2)=CC(c2cc3cc(Cl)ccc3nc2Cl)N1 (stereo not given) , system Mycobacterium tuberculosis: what inhibition (INH) was measured?
Result block: 99%

Query block: Entry N#CCCSC1=NC(c2cccc(Cl)c2)=CC(c2cc3cc(Cl)ccc3nc2Cl)N1 (stereo not given) , system Mycobacterium tuberculosis: what inhibition (INH) was measured?
Result block: 62%

----------
- Test system: Candida albicans
- EXPERIMENT NOTES: Antifungal activity against Candida albicans MTCC 227 by conventional broth microdilution method
- Format: functional
In this section, each of the molecules is paired with its reported MIC.
Number only, in µg/mL; omit the unit.

Query block: Can you share its MIC? I mean this molecule: Cc1cccc(C2=CC(c3cc4cc(Cl)ccc4nc3Cl)NC(SCCC#N)=N2)c1 (centres undefined)
Result block: 1000

Query block: Can you share its MIC? I mean this molecule: Cc1ccc(C2=CC(c3cc4cc(Cl)ccc4nc3Cl)NC(SCCC#N)=N2)cc1 (centres undefined)
Result block: 500

Query block: Can you share its MIC? I mean this molecule: N#CCCSC1=NC(c2ccc(Br)cc2)=CC(c2cc3cc(Cl)ccc3nc2Cl)N1 (centres undefined)
Result block: 500

Query block: Can you share its MIC? I mean this molecule: COc1cccc(C2=CC(c3cc4cc(Cl)ccc4nc3Cl)NC(SCCC#N)=N2)c1 (centres undefined)
Result block: 500

Query block: Can you share its MIC? I mean this molecule: N#CCCSC1=NC(c2cccc(F)c2)=CC(c2cc3cc(Cl)ccc3nc2Cl)N1 (centres undefined)
Result block: 1000

Please examine the following record next.
Query block: Can you share its MIC? I mean this molecule: COc1ccc(C2=CC(c3cc4cc(Cl)ccc4nc3Cl)NC(SCCC#N)=N2)cc1 (centres undefined)
Result block: 1000

----------
- System: Candida albicans
- EXPERIMENT NOTES: Antifungal activity against Candida albicans MTCC 227 by conventional broth microdilution method
- Type: functional
READOUT LABEL: MIC

Query block: Can you share its MIC? I mean this molecule: N#CCCSC1=NC(c2cccc(Br)c2)=CC(c2cc3cc(Cl)ccc3nc2Cl)N1 (stereo not drawn)
Result block: > 1000 µg/mL

Query block: Can you share its MIC? I mean this molecule: N#CCCSC1=NC(c2ccc(Cl)cc2)=CC(c2cc3cc(Cl)ccc3nc2Cl)N1 (stereo not drawn)
Result block: > 1000 µg/mL

Please examine the following record next.
Query block: Can you share its MIC? I mean this molecule: N#CCCSC1=NC(c2cccc([N+](=O)[O-])c2)=CC(c2cc3cc(Cl)ccc3nc2Cl)N1 (stereo not drawn)
Result block: > 1000 µg/mL

Where do the numbers come from? From ChEMBL document CHEMBL3297679.
